Provide the reported MBC of each item.
tested on: Enterococcus faecalis; assay: Bactericidal activity against […] Enterococcus faecalis OG1RF ATCC 47077 planktonic cells assessed as planktonic eradication incubated for 24 hrs followed by incubation for overnight in fresh medium by Calgary biofilm device assay; type: functional
Give just the numeric value; µM need not be written.

Inquiry: Field request: MBC | item: `c1ccc(CN(CCN(Cc2ccccn2)Cc2ccccn2)Cc2ccccn2)nc1`
Reply text: 500

Inquiry: Entry `Oc1c(Br)c(Cl)c(Br)c2nc3c(Br)cccc3nc12` : reported MBC = ?
Reply text: 6.25

Inquiry: Record request: MBC value, item `Cc1c(Br)ccc2nc3c(O)c(Br)c(Cl)c(Br)c3nc12`
Reply text: 1.56

Inquiry: // MBC lookup, key: `Oc1c(Br)c(Cl)c(Br)c2nc3c(Cl)cc(Cl)cc3nc12`
Reply text: 3.13

Inquiry: Fill in: MBC of `Oc1c(Br)c(Cl)c(Br)c2nc3ccccc3nc12` is ___
Reply text: 75
